meta.source: patent US11945822B2

# Assayed target: CDK1/Cyclin B (Homo sapiens)
# Construct: purchased Invitrogen PR4768C
# Sequence (P06493 whole entry): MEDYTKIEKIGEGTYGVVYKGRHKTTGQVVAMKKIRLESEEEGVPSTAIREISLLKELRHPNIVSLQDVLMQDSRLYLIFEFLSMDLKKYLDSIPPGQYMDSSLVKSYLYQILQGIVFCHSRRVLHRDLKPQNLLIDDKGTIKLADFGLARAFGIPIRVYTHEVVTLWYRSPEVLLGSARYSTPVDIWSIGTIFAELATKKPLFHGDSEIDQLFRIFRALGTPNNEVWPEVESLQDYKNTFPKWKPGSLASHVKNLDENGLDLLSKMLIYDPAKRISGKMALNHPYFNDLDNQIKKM
# Sequence (P14635 whole entry partner): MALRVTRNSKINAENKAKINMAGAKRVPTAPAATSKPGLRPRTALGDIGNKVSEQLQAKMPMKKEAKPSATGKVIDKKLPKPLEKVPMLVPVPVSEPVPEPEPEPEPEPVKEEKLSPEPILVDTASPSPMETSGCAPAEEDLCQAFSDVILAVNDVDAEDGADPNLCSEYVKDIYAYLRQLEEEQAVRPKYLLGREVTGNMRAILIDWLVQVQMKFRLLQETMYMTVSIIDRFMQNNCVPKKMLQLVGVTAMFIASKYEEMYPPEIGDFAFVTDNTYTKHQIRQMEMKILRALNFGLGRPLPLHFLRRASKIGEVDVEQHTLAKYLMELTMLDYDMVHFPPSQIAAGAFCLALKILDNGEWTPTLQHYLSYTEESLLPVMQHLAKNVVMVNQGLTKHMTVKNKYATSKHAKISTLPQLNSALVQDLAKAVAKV
# Assay summary: Enzymatic assay for CDK1 (FRET based LANCE Ultra kinase assay)
# Type: biochemical
# Condition info: read-out: CDK1 enzymatic activity (IC50 range)
Some compounds, each annotated with its measured IC50.

Please review the following examples before continuing.
[
  {
    "Compound": "CC(C)c1cnn2c(NCc3ccccc3-n3cccn3)nc(N3CCNCC3)nc12",
    "IC50": "> 1000 nM"
  },
  {
    "Compound": "CC(C)CC(=O)Nc1cccc2cc(-c3ccccc3CNc3nc(N4CCC(N)CC4)nc4c(C(C)C)cnn34)[nH]c12",
    "IC50": "100 to 1000 nM"
  },
  {
    "Compound": "CNC(=O)c1cc2cn(-c3ccccc3CNc3nc(N4CCC(N)CC4)nc4c(C(C)C)cnn34)nc2cc1C",
    "IC50": "> 1000 nM"
  },
  {
    "Compound": "CC(C)c1cnn2c(N[C@@H](C)c3ccccc3-c3cc4ccccc4[nH]3)nc(N3CCC(N)CC3)nc12",
    "IC50": "> 1000 nM"
  },
  {
    "Compound": "CC(C)Oc1ccc2cn(-c3ccccc3CNc3nc(N4CCC(N)CC4)nc4c(C(C)C)cnn34)nc2c1",
    "IC50": "> 1000 nM"
  }
]

Moving on to another compound below.
## Input // lookup IC50 for CNC(=O)c1cccc(F)c1CNc1nc(N2CCC(N)CC2)nc2c(C(C)(C)C)cnn12
## Output > 1000 nM

----------
# Assayed target: CDK9/CycT1 (Homo sapiens)
# Sequence (P50750 whole entry): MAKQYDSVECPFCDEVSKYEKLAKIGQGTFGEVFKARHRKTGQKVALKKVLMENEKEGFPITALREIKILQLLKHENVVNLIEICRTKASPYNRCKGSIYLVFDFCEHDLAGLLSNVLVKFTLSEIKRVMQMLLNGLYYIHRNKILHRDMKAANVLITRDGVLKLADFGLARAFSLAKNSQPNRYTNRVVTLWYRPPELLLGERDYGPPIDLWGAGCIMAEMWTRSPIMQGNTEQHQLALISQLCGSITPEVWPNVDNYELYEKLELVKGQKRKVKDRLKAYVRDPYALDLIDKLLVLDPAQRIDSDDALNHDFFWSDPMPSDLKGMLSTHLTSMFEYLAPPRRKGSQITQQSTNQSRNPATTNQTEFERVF
# Sequence (O60563 whole entry partner): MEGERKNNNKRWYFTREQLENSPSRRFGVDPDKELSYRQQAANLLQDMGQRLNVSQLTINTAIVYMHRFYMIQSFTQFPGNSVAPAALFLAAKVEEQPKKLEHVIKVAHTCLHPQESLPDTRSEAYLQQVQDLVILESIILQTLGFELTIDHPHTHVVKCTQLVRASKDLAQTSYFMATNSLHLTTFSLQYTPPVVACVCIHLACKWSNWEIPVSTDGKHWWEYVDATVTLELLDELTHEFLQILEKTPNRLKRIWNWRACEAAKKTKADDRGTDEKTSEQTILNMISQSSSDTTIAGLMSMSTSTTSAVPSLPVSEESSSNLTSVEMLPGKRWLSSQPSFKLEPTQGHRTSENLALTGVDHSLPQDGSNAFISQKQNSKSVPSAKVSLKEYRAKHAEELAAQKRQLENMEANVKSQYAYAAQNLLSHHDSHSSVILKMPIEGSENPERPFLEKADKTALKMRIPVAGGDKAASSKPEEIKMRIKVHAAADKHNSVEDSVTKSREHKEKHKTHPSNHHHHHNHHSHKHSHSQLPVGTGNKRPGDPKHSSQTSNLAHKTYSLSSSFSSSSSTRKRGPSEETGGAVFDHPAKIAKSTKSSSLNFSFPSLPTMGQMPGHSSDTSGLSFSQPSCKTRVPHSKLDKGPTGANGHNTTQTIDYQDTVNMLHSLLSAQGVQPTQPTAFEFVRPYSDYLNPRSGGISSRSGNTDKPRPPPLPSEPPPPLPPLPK
# Assay summary: In vitro IC50 profile for CDKs family kinase (33PanQinase radiometric assay)
# Condition info: CDK7 selectivity profile in CDKs family
Measurement kind: IC50

## Input // lookup IC50 for CC(C)c1cnn2c(NCc3c(Cl)cccc3-n3ccc(C(C)(C)O)n3)nc(N3CCC(N)CC3)nc12
## Output > 10 µM

----------
# Assayed target: CDK19/CycC (Homo sapiens, UniProt Q9BWU1)
# Construct: either as full-length or enzymatically active fragments
# Sequence (Q9BWU1 whole entry, the tested form may be a part): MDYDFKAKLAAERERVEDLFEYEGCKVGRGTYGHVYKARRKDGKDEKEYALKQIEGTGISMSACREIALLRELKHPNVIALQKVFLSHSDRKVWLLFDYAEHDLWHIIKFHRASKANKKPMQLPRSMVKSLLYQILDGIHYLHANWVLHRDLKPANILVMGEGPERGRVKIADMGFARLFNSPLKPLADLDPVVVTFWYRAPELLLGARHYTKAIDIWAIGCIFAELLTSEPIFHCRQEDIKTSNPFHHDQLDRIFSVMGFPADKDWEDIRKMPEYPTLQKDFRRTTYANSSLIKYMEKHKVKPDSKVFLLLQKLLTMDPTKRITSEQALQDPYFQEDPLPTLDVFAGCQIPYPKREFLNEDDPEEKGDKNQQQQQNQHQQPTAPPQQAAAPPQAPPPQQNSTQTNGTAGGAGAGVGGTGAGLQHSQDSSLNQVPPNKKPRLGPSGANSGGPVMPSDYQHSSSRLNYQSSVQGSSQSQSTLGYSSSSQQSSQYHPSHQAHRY
# Sequence (P24863 whole entry partner, the tested form may be a part): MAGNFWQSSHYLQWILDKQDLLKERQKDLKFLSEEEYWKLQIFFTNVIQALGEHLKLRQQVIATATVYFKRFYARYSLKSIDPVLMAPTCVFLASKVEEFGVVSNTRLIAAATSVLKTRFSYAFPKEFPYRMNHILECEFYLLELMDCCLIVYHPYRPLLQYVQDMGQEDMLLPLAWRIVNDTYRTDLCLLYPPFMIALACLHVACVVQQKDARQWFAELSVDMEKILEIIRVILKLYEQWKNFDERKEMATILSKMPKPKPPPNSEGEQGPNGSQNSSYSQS
# Assay summary: In vitro IC50 profile for CDKs family kinase (33PanQinase radiometric assay)
# Condition info: CDK7 selectivity profile in CDKs family
pIC50: −log10 of the molar value.
Measurement kind: pIC50

## Input // lookup pIC50 for CC(C)c1cnn2c(NCc3c(Cl)cccc3-n3ccc(C(C)(C)O)n3)nc(N3CCC(N)CC3)nc12
## Output < 5.00

----------
# Tested on: A2780
# Assay summary: Cellular A2780 viability assay (CellTiter-Glo, 72 hours)
# Assay type: cell-based
# Condition info: Homo sapiens
Measurement kind: IC50

Please review the following examples before continuing.
[
  {
    "Compound structure string": "CC(C)c1cnn2c(NCc3c(Cl)cccc3-n3ccc(C(C)(C)O)n3)nc(N3CCC(O)(CN)CC3)nc12",
    "Assayed target": "A2780",
    "IC50": "≤ 1000 nM"
  },
  {
    "Compound structure string": "Cc1cn(-c2cccc(Cl)c2CNc2nc(N3CCC(N)CC3)nc3c(C(C)C)cnn23)nc1C(C)(C)O",
    "Assayed target": "A2780",
    "IC50": "≤ 1000 nM"
  },
  {
    "Compound structure string": "CC(C)c1cnn2c(NCc3c(Cl)cccc3-c3ncc(C(C)(C)O)s3)nc(N3CCC(N)CC3)nc12",
    "Assayed target": "A2780",
    "IC50": "≤ 1000 nM"
  }
]

Moving on to another molecule below.
## Input // lookup IC50 for CC(C)c1cnn2c(NCc3ccccc3-c3ccc4ccccc4n3)nc(O[C@H]3CC[C@@H](O)CC3)nc12
## Output 1000 to 10000 nM
